Target: T1, Human CD3eg linker (human)
T1 construct: Single chain: epsilon and gamma subunits of human CD3 joined by a 29-mer linker, Flag-tag at the C-terminus; also called recombinant human CD3
T1 chain: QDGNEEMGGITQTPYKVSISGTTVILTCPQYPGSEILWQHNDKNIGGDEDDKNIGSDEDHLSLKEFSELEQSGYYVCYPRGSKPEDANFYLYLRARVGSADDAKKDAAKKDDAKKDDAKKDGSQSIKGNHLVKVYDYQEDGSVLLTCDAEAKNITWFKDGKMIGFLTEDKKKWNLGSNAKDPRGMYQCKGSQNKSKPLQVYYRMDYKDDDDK
Assay: Biacore SPR, vs template H183/L072
reported_endpoint: fold change of affinity (fold)
// note: answer is a bare numeric in fold

>>> quantitative_result("H183/L072 VH W33R (antibody, name in Kabat numbering, V domains shown) VH: QVQLVESGGGLVQPGRSLRLSCAASGFTFSNARMHWVRQAPGKGLEWVAQIKDKGNAYAAYYAPSVKGRFTISRDDSKNSIYLQMNSLKTEDTAVYYCHYVHYASASTVLPAFGVDAWGQGTTVTVSS VL: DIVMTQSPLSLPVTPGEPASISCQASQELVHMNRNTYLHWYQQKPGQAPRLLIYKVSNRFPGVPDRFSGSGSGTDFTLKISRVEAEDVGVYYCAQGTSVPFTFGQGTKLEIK")
0

Read the next record carefully.
According to the records, this binder H183/L072 VH W33K (antibody, name in Kabat numbering, V domains shown) VH: QVQLVESGGGLVQPGRSLRLSCAASGFTFSNAKMHWVRQAPGKGLEWVAQIKDKGNAYAAYYAPSVKGRFTISRDDSKNSIYLQMNSLKTEDTAVYYCHYVHYASASTVLPAFGVDAWGQGTTVTVSS VL: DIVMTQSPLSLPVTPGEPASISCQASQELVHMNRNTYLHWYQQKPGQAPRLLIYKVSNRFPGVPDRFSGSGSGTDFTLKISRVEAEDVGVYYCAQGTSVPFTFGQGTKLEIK displays fold change of affinity of 0
